All figures here come from ChEMBL document CHEMBL5291721.

- targetOfAssay: Gamma-aminobutyric acid receptor subunit alpha-1 (Rattus norvegicus); note: assay procedure not described here
- Sequence (P62813 whole entry): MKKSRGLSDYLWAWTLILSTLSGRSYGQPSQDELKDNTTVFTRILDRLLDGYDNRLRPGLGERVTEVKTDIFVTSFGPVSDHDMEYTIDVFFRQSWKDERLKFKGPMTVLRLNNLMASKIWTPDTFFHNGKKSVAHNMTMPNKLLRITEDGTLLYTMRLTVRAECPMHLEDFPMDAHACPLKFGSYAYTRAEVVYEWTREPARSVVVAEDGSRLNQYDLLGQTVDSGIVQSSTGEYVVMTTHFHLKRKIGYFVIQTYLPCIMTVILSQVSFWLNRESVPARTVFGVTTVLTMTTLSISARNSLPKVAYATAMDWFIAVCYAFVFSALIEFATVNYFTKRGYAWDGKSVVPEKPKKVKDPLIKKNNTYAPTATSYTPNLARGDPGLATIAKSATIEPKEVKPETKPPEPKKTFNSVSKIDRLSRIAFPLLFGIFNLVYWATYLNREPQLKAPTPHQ
Recorded AC50 values for a group of compounds are listed next.

Examples with answers:
1. CNC(=C[N+](=O)[O-])NCCSCc1csc(CN(C)C)n1; > 10 µM
2. CCN1CCCC1CNC(=O)c1cc(S(=O)(=O)CC)ccc1OC (centres undefined) [SULTOPRIDE]; > 30 µM
3. CCCN(CCC)S(=O)(=O)c1ccc(C(=O)O)cc1; > 10 µM
4. CCOC(=O)c1ccc(N)cc1; > 10 µM
5. Cc1ccnc2c1NC(=O)c1cccnc1N2C1CC1; > 10 µM
6. COc1cc(C(=O)OCc2cccc(COC(=O)c3cc(OC)c(OC)c(OC)c3)n2)cc(OC)c1OC; > 30 µM

Entry `Cc1cc(C)nc(NS(=O)(=O)c2ccc(N)cc2)n1` , Gamma-aminobutyric acid receptor subunit alpha-1 (Rattus norvegicus) data, AC50 value: > 10 µM

Entry `CCOC(=O)c1c(CSc2ccccc2)n(C)c2cc(Br)c(O)c(CN(C)C)c12` , Gamma-aminobutyric acid receptor subunit alpha-1 (Rattus norvegicus) data, AC50 value: > 30 µM

Entry `CC[C@H](C)C(=O)O[C@H]1C[C@@H](C)C=C2C=C[C@H](C)[C@H](CC[C@@H]3C[C@@H](O)CC(=O)O3)[C@H]21` , Gamma-aminobutyric acid receptor subunit alpha-1 (Rattus norvegicus) data, AC50 value: > 10 µM

###

Quick record: AC50, 5-hydroxytryptamine receptor 2C (Homo sapiens).

Examples with answers:
1. CC(Cc1cccc(C(F)(F)F)c1)NCCOC(=O)c1ccccc1 (stereo not given); 3.5 µM
2. CCN1CC(CCN2CCOCC2)C(c2ccccc2)(c2ccccc2)C1=O (stereo not given); 0.071 µM
3. Fc1ccc([C@@H]2CCNC[C@H]2COc2ccc3c(c2)OCO3)cc1; > 30 µM
4. CC(C)(O/N=C(\C(=O)N[C@@H]1C(=O)N2C(C(=O)[O-])=C(C[n+]3ccccc3)CS[C@H]12)c1csc(N)n1)C(=O)O; > 300 µM
5. CC(=O)Nc1ccc(CC(=O)O)cc1; > 30 µM
6. Cc1cc(C)nc(NS(=O)(=O)c2ccc(N)cc2)n1; > 30 µM
7. Cc1cccc(C)c1NC(=O)CC12CCCN1CCC2 [PILSICAINIDE]; > 30 µM
8. NNC(=O)c1ccncc1; > 30 µM
9. CC(C(=O)O)c1ccc2c(c1)CC(=O)c1ccccc1S2 (stereo not given); > 30 µM

Entry `CC(C)c1cccc(C(C)C)c1O` , 5-hydroxytryptamine receptor 2C (Homo sapiens) data, AC50 value: > 30 µM

###

Recorded AC50 values for a group of molecules are listed next.
- targetOfAssay: D(1A) dopamine receptor (Homo sapiens); note: assay procedure not described here
- Sequence (P21728 whole entry): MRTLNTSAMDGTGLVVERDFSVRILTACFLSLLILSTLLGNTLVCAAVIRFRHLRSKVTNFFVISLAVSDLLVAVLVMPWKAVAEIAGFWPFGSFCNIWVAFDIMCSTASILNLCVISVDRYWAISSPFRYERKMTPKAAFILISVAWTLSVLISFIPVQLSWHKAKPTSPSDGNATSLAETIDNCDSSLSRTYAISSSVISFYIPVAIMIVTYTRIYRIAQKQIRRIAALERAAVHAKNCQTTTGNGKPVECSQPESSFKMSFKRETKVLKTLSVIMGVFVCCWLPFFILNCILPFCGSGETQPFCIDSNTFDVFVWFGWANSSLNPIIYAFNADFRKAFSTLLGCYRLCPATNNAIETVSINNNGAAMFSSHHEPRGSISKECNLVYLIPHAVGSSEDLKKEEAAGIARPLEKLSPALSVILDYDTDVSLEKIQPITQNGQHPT
- Type: functional, cell-based

1. COc1cc(C(=O)NC2CCCNC2)cc(OC)c1OC (centres undefined) [TROXIPIDE]; > 30 µM
2. C[C@]12CCC(=O)C[C@@H]1CC[C@@H]1[C@@H]2CC[C@]2(C)[C@@H](O)CC[C@@H]12; > 30 µM
3. CC(C)N(CCCCOCC(=O)O)c1cnc(-c2ccccc2)c(-c2ccccc2)n1; 7.3 µM

Continue with the molecule presented below.
For reference, reported AC50 for CC(C)[C@@H](C)/C=C/[C@@H](C)[C@H]1CC[C@H]2/C(=C/C=C3\C[C@@H](O)CC[C@@H]3C)CCC[C@]12C [DIHYDROTACHYSTEROL] stands at > 10 µM

###

Recorded AC50 values for a group of molecules are listed next.
- targetOfAssay: 5-hydroxytryptamine receptor 2A (Homo sapiens, UniProt P28223); note: assay procedure not described here
- Sequence (P28223 whole entry): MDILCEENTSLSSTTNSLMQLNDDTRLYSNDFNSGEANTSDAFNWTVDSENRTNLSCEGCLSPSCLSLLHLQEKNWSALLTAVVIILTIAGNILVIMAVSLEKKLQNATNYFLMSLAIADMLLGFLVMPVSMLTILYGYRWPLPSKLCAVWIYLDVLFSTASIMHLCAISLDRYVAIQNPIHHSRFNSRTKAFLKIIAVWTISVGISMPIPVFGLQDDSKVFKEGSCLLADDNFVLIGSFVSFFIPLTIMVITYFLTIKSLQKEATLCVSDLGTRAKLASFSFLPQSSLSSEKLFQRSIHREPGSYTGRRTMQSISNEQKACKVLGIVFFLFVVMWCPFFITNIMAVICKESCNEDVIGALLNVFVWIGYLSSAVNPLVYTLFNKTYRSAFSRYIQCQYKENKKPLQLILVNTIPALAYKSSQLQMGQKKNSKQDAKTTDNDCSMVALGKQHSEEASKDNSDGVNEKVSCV
- Format: functional, cell-based
Give just the numeric value; µM need not be written.

Examples with answers:
1) Clc1ccc(Cn2c(CN3CCCC3)nc3ccccc32)cc1; 15
2) COc1cc2[nH]c(C)c(CCN3CCN(c4ccccc4)CC3)c2cc1OC; 0.41
3) COc1ccc(CN2CCN(C(c3ccc(F)cc3)c3ccc(F)cc3)CC2)c(OC)c1OC; 21

Continue with the molecule presented below.
For reference, reported AC50 for `CCOC(=O)c1c(CSc2ccccc2)n(C)c2cc(Br)c(O)c(CN(C)C)c12` stands at 6.7

###

- targetOfAssay: Muscarinic acetylcholine receptor M2 (Homo sapiens, UniProt P08172); note: assay procedure not described here
- Sequence (P08172 whole entry): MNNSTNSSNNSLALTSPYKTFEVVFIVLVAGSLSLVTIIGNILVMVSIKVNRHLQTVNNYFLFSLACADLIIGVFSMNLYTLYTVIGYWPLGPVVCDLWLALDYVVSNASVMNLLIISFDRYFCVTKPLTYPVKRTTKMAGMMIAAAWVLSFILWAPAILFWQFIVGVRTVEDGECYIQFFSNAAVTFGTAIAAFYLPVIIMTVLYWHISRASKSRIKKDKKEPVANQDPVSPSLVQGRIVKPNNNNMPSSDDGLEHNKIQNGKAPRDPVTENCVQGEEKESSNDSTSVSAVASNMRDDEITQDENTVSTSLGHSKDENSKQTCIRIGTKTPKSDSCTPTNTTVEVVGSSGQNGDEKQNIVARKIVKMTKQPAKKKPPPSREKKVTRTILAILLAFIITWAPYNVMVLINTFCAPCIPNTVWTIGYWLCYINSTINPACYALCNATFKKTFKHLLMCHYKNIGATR
- Type: functional, cell-based
Where a SMILES comes first, the peptide text is derived from it. [ ]: non-standard residue; d: D form. pGlu = O=C1CC[C@@H](C(=O)O)N1; Thz = O=C(O)[C@@H]1CSCN1
assayReadout: AC50

1. O=C(O)CCNC(=O)c1ccc(/N=N/c2ccc(O)c(C(=O)O)c2)cc1 [BALSALAZIDE]; > 30 µM
2. O=C1CC[C@@H](C(=O)N2CSC[C@H]2C(=O)O)N1 [PIDOTIMOD] ([pGlu]-[Thz]-OH); > 30 µM
3. CCC(NC(C)C)C(O)c1ccc(O)c2[nH]c(=O)ccc12 (stereo not drawn) [PROCATEROL]; > 30 µM
4. CCC1(c2ccc(N)cc2)CCC(=O)NC1=O (stereo not drawn) [AMINOGLUTETHIMIDE]; > 30 µM
5. Cc1ccnc2c1NC(=O)c1cccnc1N2C1CC1 [NEVIRAPINE]; > 10 µM
6. COc1cc(N)c(Cl)cc1C(=O)NC1CCN(CCCOc2ccc(F)cc2)CC1OC (stereo not drawn) [CISAPRIDE]; > 10 µM
7. CC(C)(O/N=C(\C(=O)N[C@@H]1C(=O)N2C(C(=O)[O-])=C(C[n+]3ccccc3)CS[C@H]12)c1csc(N)n1)C(=O)O [CEFTAZIDIME]; > 300 µM

For reference, reported AC50 for CC(C)C[C@H](NC(=O)[C@@H](O)[C@H](N)Cc1ccccc1)C(=O)O [UBENIMEX] stands at > 30 µM

###

Quick record: AC50, Adenosine receptor A1 (Homo sapiens, UniProt P30542).

1. COc1ccccc1OC1(C)OC(=O)c2ccccc2O1 (stereo not drawn); > 30 µM
2. COc1cc(C(=O)NC2CCCNC2)cc(OC)c1OC (stereo not drawn) [TROXIPIDE]; > 30 µM
3. CCCN1CC(NS(=O)(=O)N(CC)CC)CC2Cc3c(O)cccc3CC21 (stereo not drawn) [QUINAGOLIDE]; > 30 µM
4. CC(C)NC[C@H](O)COc1ccc(CC(N)=O)cc1; > 30 µM
5. COc1ccc(CN2CCN(C(c3ccc(F)cc3)c3ccc(F)cc3)CC2)c(OC)c1OC; > 30 µM

Entry `CN[C@@H](C)[C@@H](O)c1ccccc1` , Adenosine receptor A1 (Homo sapiens, UniProt P30542) data, AC50 value: > 30 µM

Entry `CCOC(=O)c1ncn2c1CN(C)C(=O)c1cc(F)ccc1-2` , Adenosine receptor A1 (Homo sapiens, UniProt P30542) data, AC50 value: > 30 µM

Entry `CC(C)(O/N=C(\C(=O)N[C@@H]1C(=O)N2C(C(=O)[O-])=C(C[n+]3ccccc3)CS[C@H]12)c1csc(N)n1)C(=O)O` , Adenosine receptor A1 (Homo sapiens, UniProt P30542) data, AC50 value: > 300 µM

Entry `C[C@]12C/C(=C/O)C(=O)C[C@@H]1CC[C@@H]1[C@@H]2CC[C@@]2(C)[C@H]1CC[C@]2(C)O` , Adenosine receptor A1 (Homo sapiens, UniProt P30542) data, AC50 value: > 30 µM

Entry `CC(C)Cc1ccc([C@H](C)C(=O)O)cc1` , Adenosine receptor A1 (Homo sapiens, UniProt P30542) data, AC50 value: > 30 µM

Entry `C[C@]12C=CC(=O)C=C1CC[C@@H]1[C@@H]2CC[C@]2(C)OC(=O)CC[C@@H]12` , Adenosine receptor A1 (Homo sapiens, UniProt P30542) data, AC50 value: > 10 µM

Entry `CCCc1nc2c(C)cc(-c3nc4ccccc4n3C)cc2n1Cc1ccc(-c2ccccc2C(=O)O)cc1` , Adenosine receptor A1 (Homo sapiens, UniProt P30542) data, AC50 value: > 30 µM

Entry `CCCc1cc(=O)[nH]c(=S)[nH]1` , Adenosine receptor A1 (Homo sapiens, UniProt P30542) data, AC50 value: > 10 µM

Entry `COc1ccc([C@@H]2CC(=O)c3c(O)cc(O)cc3O2)cc1O` , Adenosine receptor A1 (Homo sapiens, UniProt P30542) data, AC50 value: > 10 µM

Entry `CCC1(CCC(C)C)C(=O)NC(=O)NC1=O` , Adenosine receptor A1 (Homo sapiens, UniProt P30542) data, AC50 value: > 10 µM

Entry CCCC(C)(COC(N)=O)COC(N)=O [MEPROBAMATE] , Adenosine receptor A1 (Homo sapiens, UniProt P30542) data, AC50 value: > 10 µM

Entry `C[C@@H]1C[C@H]2[C@@H]3CCC4=CC(=O)C=C[C@]4(C)[C@@]3(F)[C@@H](O)C[C@]2(C)[C@@]1(O)C(=O)CO` , Adenosine receptor A1 (Homo sapiens, UniProt P30542) data, AC50 value: > 30 µM

Entry O=C1Nc2ccc(Cl)cc2C(c2ccccc2Cl)=NC1O (stereo not drawn) , Adenosine receptor A1 (Homo sapiens, UniProt P30542) data, AC50 value: > 30 µM
